Origin of measurements: patent US9359298B2

Can you tell me IC50 for the items I'm about to list?
system: Coxsackie virus B6; experiment: Coxsackie virus activity assay (CPE in Vero cells); format: cell-based; conditions: Vero, read-out: COX-B6 IC50, Vero cells, about 100TCID50, CPE, Reed-Muench

[[record]]
compound = "COC(=O)c1c(/C=C/CCc2ccccc2)cc(OC)c(CC=C(C)C)c1O"
reading = "> 6.17 µg/mL"

[[record]]
compound = "COC(=O)c1c(O)c(CC=C(C)C)c(OC)c(Cl)c1/C=C/c1ccccc1"
reading = "> 6.17 µg/mL"

[[record]]
compound = "COc1cc(/C=C/C2CCCCC2)c(C(=O)O)c(O)c1CC=C(C)C"
reading = "> 2.06 µg/mL"

[[record]]
compound = "COC(=O)c1c(O)cc(OC)c(CC=C(C)C)c1/C=C/c1ccccc1"
reading = "> 6.17 µg/mL"


Moving on to another compound below.
Enquiry: Give reported IC50 value for COc1cc(/C=C/C=C/c2ccccc2)c(C(=O)O)c(O)c1CC=C(C)C
Return: > 2.06 µg/mL

###

system: Influenza A virus (hanfang359/95); assay: Determination of anti-influenza virus activity (CPE in MDCK cells); assay type: cell-based; conditions: Influenza A virus, MDCK, 36 h
measured.attribute: IC50

Known results for molecules:
[[record]]
molecule = "COC(=O)c1c(/C=C(\\C)c2ccccc2)cc(OC)c(CC=C(C)C)c1O"
reading = "> 2.47 mg/L"

[[record]]
molecule = "COc1cc(CCc2ccccc2)c(C(=O)O)c(O)c1CC=C(C)C"
reading = "> 22.2 mg/L"

[[record]]
molecule = "COC(=O)c1c(/C=C/c2ccc(OC)cc2)cc(OC)c(CC=C(C)C)c1O"
reading = "> 2.06 mg/L"


Give IC50 for each of the items listed below.
1. COc1cc(/C=C/c2ccccc2Cl)cc(O)c1CC=C(C)C [Compound 10b]
2. COc1ccc(/C=C/c2cc(O)c(CC=C(C)C)c(OC)c2)cc1 [Compound 10c]
3. COC(=O)c1c(/C=C/c2ccccc2)cc(OC)c(CC=C(C)C)c1OC
4. COc1cccc(OC)c1/C=C/c1cc(O)c(CC=C(C)C)c(OC)c1 [Compound 10d]

Return:
1: > 0.23 mg/L; 2: > 6.17 mg/L; 3: > 2.06 mg/L; 4: > 6.17 mg/L

###

Could you please report measured IC50 for the items listed next?
system: Influenza A virus (hanfang359/95); assay: Determination of anti-influenza virus activity (CPE in MDCK cells); assay type: cell-based; settings: Influenza A virus, MDCK, 36 h

Please review the entries below; each comes with its answer.
[[record]]
compound = "COc1cc(/C=C/c2ccccc2)cc(OCN)c1CC=C(C)C [Compound 26c]"
measured_attribute = "IC50"
reading = "1.35 µg/mL"

[[record]]
compound = "COc1cc(/C=C/c2ccc(O)cn2)c(C(=O)O)c(O)c1CC=C(C)C"
measured_attribute = "IC50"
reading = "4.25 µg/mL"

[[record]]
compound = "COC(=O)c1c(/C=C/c2ccccc2)cc(OC)c(CC=C(C)C)c1OC(=O)C(=O)O [Compound 31a]"
measured_attribute = "IC50"
reading = "0.14 µg/mL"

[[record]]
compound = "COC(=O)c1c(/C=C/c2ccccc2)cc(OC)c(CC=C(C)C)c1OC(=O)c1cnc[nH]1 [Compound 24p]"
measured_attribute = "IC50"
reading = "1.32 µg/mL"


Dear reader, for each entry below, please note its IC50.
1. COc1cc(/C=C/Cc2ccccc2)cc(O)c1CC=C(C)C [Compound 10k]
2. COC(=O)c1c(/C=C/c2ccccc2)cc(OC)c(CC=C(C)C)c1OC(=O)NN [Compound 29a]
3. COc1cc(/C=C/c2ccc(F)cc2)cc(O)c1CC=C(C)C [Compound 10a]
4. COC(=O)c1c(/C=C/c2ccccn2)cc(OC)c(CC=C(C)C)c1O
5. COc1cc(/C=C/c2cccc(O)n2)cc(O)c1CC=C(C)C [10g′]
6. COc1cc(/C=C(\C)c2cc(O)cc(O)c2)cc(OC)c1 [Compound 21g]

Return:
0.89 µg/mL
0.98 µg/mL
> 0.69 µg/mL
0.12 µg/mL
0.87 µg/mL
4.25 µg/mL

Give me IC50 for each of these compounds, listed below.
1. COc1cc(/C=C/c2ccccc2)c(C(=O)O)c(OC(=O)c2cnc[nH]2)c1CC=C(C)C [Compound 24q]
2. COc1cc(/C=C/c2ccccc2)cc(OC(=O)CN(C)C)c1CC=C(C)C [Compound 24o]
3. COc1cc(/C=C/c2ccccc2)cc(O)c1CCC(C)C [Compound 10w]
4. COC(=O)c1c(/C=C/c2ccc(OC(C)=O)cc2)cc(OC)c(CC=C(C)C)c1O
5. COc1cc(/C=C/c2cccc(O)n2)c(C(=O)O)c(O)c1CC=C(C)C
6. COc1cc(/C=C/c2ccccc2)c(C(=O)Nc2ccccc2)c(O)c1CC=C(C)C
7. COc1cc(/C=C/c2ccccc2C)cc(O)c1CC=C(C)C [Compound 10e]

Return:
1.98 µg/mL
2.31 µg/mL
0.53 µg/mL
8.23 µg/mL
1.34 µg/mL
0.84 µg/mL
1.92 µg/mL

I'm hoping you can list IC50 for every compound here, please.
1. CC/C=C/c1cc(OC)c(CC=C(C)C)c(O)c1C(=O)O
2. COc1cc(/C=C/c2ccccc2Cl)c(C(=O)O)c(O)c1CC=C(C)C
3. COc1cc(/C=C/c2ccccc2)c(C(=O)n2ccnc2)c(O)c1CC=C(C)C
4. COc1cc(/C=C/c2ccc(F)cc2)c(C(=O)O)c(O)c1CC=C(C)C
5. COc1cc(CCc2ccccc2)cc(O)c1CCC(C)C [Compound 10u, 2-isopentyl-3-methoxy-5-phenethyl phenol]
6. COc1cc(/C=C/Cc2ccccc2)c(C(=O)O)c(O)c1CC=C(C)C
7. COc1cc(/C=C/c2ccc(OC)c(O)c2)cc(OC)c1 [Compound 21d]

Return:
1: 1.92 µg/mL; 2: > 18.5 µg/mL; 3: 1.25 µg/mL; 4: > 0.69 µg/mL; 5: > 2.06 µg/mL; 6: 2.05 µg/mL; 7: 5.42 µg/mL
